All values here come from patent US20220282217A1.

biological target: T1, HLA-B08.01 (human); assay: competition vs radiolabeled reference peptide on purified MHC I, gel filtration
T1 construct: As for HLA-A02.01
endpoint: IC50
# output: numeric value plus its unit

Solved cases (3 shown):
[[record]]
binder = "LATEKSRWSG (also called BRAF, V600E)"
endpoint = "IC50"
experimental_value = "46.6 µM"

[[record]]
binder = "WLHKRGKYI (also called AKT1, E17K)"
endpoint = "IC50"
experimental_value = "0.417 µM"

[[record]]
binder = "LATEKSRWS (also called BRAF, V600E)"
endpoint = "IC50"
experimental_value = "37 µM"


Next up:
Query string: Report IC50 for FLPSTLKSL (also called ESR1, S463P) please.
Result string: 1.97 µM
